- measured target: ferritin (FTH) (Homo sapiens, UniProt P02794)
- Construct: made in house; host or cells: Escherichia coli BL21 (DE3), plasmid pET20-FTH
- Sequence (P02794 whole entry): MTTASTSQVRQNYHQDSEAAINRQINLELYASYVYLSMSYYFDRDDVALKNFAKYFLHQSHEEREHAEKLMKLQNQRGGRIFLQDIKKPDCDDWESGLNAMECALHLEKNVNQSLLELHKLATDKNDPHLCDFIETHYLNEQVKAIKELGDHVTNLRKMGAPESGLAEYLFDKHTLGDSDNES
- protocol details: Search for peptides capable of being encapsulated into ferritin by disassembly/reassembly process, LC-MS detection
- Parameters: key: “A” represents peptides with three times of confirmation of encapsulation.; “B” represents peptides with two times of confirmation of encapsulation or less.; “C” represents peptides without confirmation of encapsulation
- test parameters: encapsulation into ferritin (FTH); three trials
No end group written: not given here.
measure name: encapsulation

5(6)-FAM-CGGKRPAAIK KAGQAKKKKG (SEQ ID NO: 11) ({5(6)‑FAM}-CGGKRPAAIKKAGQAKKKKG) [FAM-Np, fluorescent dye-modified peptide, linear] : C
RRRRRRRRRR (SEQ ID NO: 17) [Rx10] : C

meta.source: patent US20220401560A1
